Where do the numbers come from? From patent US20260364068A1.

Attribute: viability at 48 h, 10 µM
Experiment: Cell viability measurement (MTS), Calu-3 cells
Format: cell-based
Conditions: human, 10 μM

Worked examples, 2 compounds total:
molecule=FC(F)Oc1cc2[nH]c(-c3cccc(Nc4ncc(-c5ccccn5)cn4)c3)nc2cn1 value_kind="viability at 48 h, 10 µM" observed_measurement="50 to 80%"
molecule=FC(F)(F)c1ccc2nc(-c3cccc(Nc4ncc(-c5cccnn5)cn4)c3)[nH]c2c1 value_kind="viability at 48 h, 10 µM" observed_measurement="50 to 80%"

### Prompt Query (compound): `Cc1ccc2nc(-c3cccc(Nc4ccc(-c5cccnn5)cc4)c3)[nH]c2c1` ; field requested: viability at 48 h, 10 µM
### Response 50 to 80%

### Prompt Try `Fc1cc2nc(-c3cccc(Nc4ncc(-c5ccccn5)cn4)c3)[nH]c2cc1F` next.
### Response > 80%

### Prompt Try `c1cc(Nc2ncc(-c3cccnn3)cn2)cc(-c2nc3cnccc3[nH]2)c1` next.
### Response > 80%

### Prompt Try `FC(F)(F)c1ccc2nc(-c3cccc(Nc4ncc(-c5ccccn5)cn4)c3)[nH]c2c1` next.
### Response > 80%

### Prompt Try `Clc1cc2[nH]c(-c3cccc(Nc4ncc(-c5cscn5)cn4)c3)nc2cn1` next.
### Response 50 to 80%

### Prompt Try `FC(F)Oc1ccc2nc(-c3cccc(Nc4cnc(-c5ccccn5)cn4)c3)[nH]c2c1` next.
### Response > 80%

----------
Assay: Cell viability measurement (MTS), Calu-3 cells
Type: cell-based
Conditions: human, 10 μM
VALUE_KIND: viability at 48 h, 10 µM

Worked examples, 2 compounds total:
molecule=FC(F)Oc1cc2[nH]c(-c3cccc(Nc4cnc(-c5ccccn5)cn4)c3)nc2cn1 observed_measurement="> 80%"
molecule=Clc1ccc2nc(-c3cccc(Nc4cnc(-c5ccccn5)cn4)c3)[nH]c2c1 observed_measurement="> 80%"

### Prompt Query (compound): `c1cc(Nc2ccc(-c3cccnn3)cc2)cc(-c2nc3ccccc3[nH]2)c1` ; field requested: viability at 48 h, 10 µM
### Response 50 to 80%

### Prompt Try `Fc1cc2nc(-c3cccc(Nc4cnc(-c5ccncn5)cn4)c3)[nH]c2cc1F` next.
### Response > 80%

### Prompt Try `Fc1cc2nc(-c3cccc(Nc4ncc(-c5cccnn5)cn4)c3)[nH]c2cc1F` next.
### Response > 80%

### Prompt Try `Cc1noc(-c2ccc3nc(-c4cccc(Nc5ccc(-c6cccnn6)cc5)c4)[nH]c3c2)n1` next.
### Response > 80%

### Prompt Try `FC(F)(F)Oc1ccc2nc(-c3cccc(Nc4ncc(-c5ccccn5)cn4)c3)[nH]c2c1` next.
### Response 50 to 80%

### Prompt Try `FC(F)(F)c1cc2[nH]c(-c3cccc(Nc4ncc(-c5cccnn5)cn4)c3)nc2cn1` next.
### Response > 80%

----------
Test system: Severe Acute Respiratory Syndrome Coronavirus Type 2
Experiment: microbe, parasite or virus in culture
Format: cell-based
Details: Vero, 10 uM, virus strain NCCP-43388, 48 hours, read-out: Virus replication inhibition efficacy
Attribute: inhibition at 10 µM

compound="c1ccc(-c2ccc(Nc3cccc(-c4nc5ccccc5[nH]4)c3)cc2)nc1 [Example 20]" observed_measurement="> 60%"
compound="Clc1ccc2nc(-c3cccc(Nc4ccc(-c5cccnn5)cc4)c3)[nH]c2c1 [Example 226]" observed_measurement="> 60%"
compound="FC(F)(F)c1ccc2nc(-c3cccc(Nc4ccc(-c5cncnc5)cc4)c3)[nH]c2c1 [Example 28]" observed_measurement="> 60%"

### Prompt Query (compound): Cc1noc(-c2ccc3nc(-c4cccc(Nc5ccc(-c6cccnn6)cc5)c4)[nH]c3c2)n1 [Example 93] ; field requested: inhibition at 10 µM
### Response 30 to 60%

----------
Assay: Cell viability measurement (MTS), Calu-3 cells
Format: cell-based
Conditions: human, 3 μM
Method: Experimental Example 3: Cell Viability Measurement Vero cell line (VERO01WCB-1201, Ministry of Food and Drug Safety, Republic of Korea), Calu-3 cell line (KCLB #30055, Korea Cell Line Bank (KCLB), Republic of Korea), CellTiter 96® AQueous One Solution Cell Proliferation Assay kit (Promega, cat. #G3582), and Infinite M200 microplate reader (Tecan). […] The cell viability (also, referred to as cell survival rate) (%) by compound treatment was calculated using the following analysis method. […]
Attribute: viability at 48 h, 3 µM

Worked examples, 6 compounds total:
compound="c1cc(Nc2ccc(C3CCCCC3)cc2)cc(-c2nc3ccccc3[nH]2)c1 [Example 97]" observed_measurement="50 to 80%"
compound="c1cc(Nc2ccc(-c3cnccn3)cc2)cc(-c2nc3ccccc3[nH]2)c1 [Example 32]" observed_measurement="50 to 80%"
compound="Cc1cscc1-c1cnc(Nc2cccc(-c3nc4ccccc4[nH]3)c2)nc1 [Example 43]" observed_measurement="50 to 80%"
compound="FC(F)(F)c1cc2[nH]c(-c3cccc(Nc4ncc(-c5cccnn5)cn4)c3)nc2cn1 [Example 103]" observed_measurement="> 80%"
compound="FC(F)(F)c1ccc2nc(-c3cccc(Nc4ccc(-c5cccnn5)cc4)c3)[nH]c2c1 [Example 23]" observed_measurement="50 to 80%"
compound="c1ccc(-c2ccc(Nc3cccc(-c4nc5ccccc5[nH]4)c3)cn2)cc1 [Example 80]" observed_measurement="50 to 80%"

### Prompt Query (compound): FC(F)(F)c1ccc2nc(-c3cccc(Nc4ncc(-c5cccnn5)cn4)c3)[nH]c2c1 [Example 52] ; field requested: viability at 48 h, 3 µM
### Response 50 to 80%

----------
Experiment: Cell viability measurement (MTS), Calu-3 cells
Format: cell-based
Conditions: human, 3 μM
VALUE_KIND: viability at 48 h, 3 µM

Worked examples, 2 compounds total:
molecule=Fc1cc2[nH]c(-c3cccc(Nc4ccc(-c5cccnn5)cc4)c3)nc2cc1C(F)(F)F observed_measurement="50 to 80%"
molecule=Fc1cc2[nH]c(-c3cccc(Nc4ccc(-c5cccnn5)cc4)c3)nc2cc1Cl observed_measurement="> 80%"

The record that follows has no viability at 48 h, 3 µM shown yet.
### Prompt Query (compound): `c1cc(Nc2ccc(-c3cccnn3)cn2)cc(-c2nc3ccccc3[nH]2)c1` ; field requested: viability at 48 h, 3 µM
### Response 50 to 80%

----------
Assay: Cell viability measurement (MTS), Vero cells
Format: cell-based
Conditions: monkey, 10 μM
VALUE_KIND: viability at 48 h, 10 µM

Worked examples, 3 compounds total:
molecule=c1cnc(-c2ccc(Nc3cccc(-c4nc5ccccc5[nH]4)c3)cc2)nc1 observed_measurement="> 80%"
molecule=Fc1cc2nc(-c3cccc(Nc4ccc(-c5ccccc5)nn4)c3)[nH]c2cc1Br observed_measurement="50 to 80%"
molecule=c1cc(Nc2ccc(-c3cccnn3)cn2)cc(-c2nc3ccccc3[nH]2)c1 observed_measurement="> 80%"

### Prompt Query (compound): `Clc1cc2nc(-c3cccc(Nc4ccc(-c5ccccc5)cn4)c3)[nH]c2cc1Cl` ; field requested: viability at 48 h, 10 µM
### Response 50 to 80%

### Prompt Try `Fc1ccc2nc(-c3cccc(Nc4ccc(-c5cccnn5)cn4)c3)[nH]c2c1` next.
### Response 50 to 80%

----------
System: Severe Acute Respiratory Syndrome Coronavirus Type 2
Test: microbe, parasite or virus in culture
Assay type: cell-based
Conditions: Vero, 10 uM, virus strain NCCP-43388, 48 hours, read-out: Virus replication inhibition efficacy
VALUE_KIND: inhibition at 10 µM

Worked examples, 5 compounds total:
compound="Cc1ccc2nc(-c3cccc(Nc4ccc(-c5cccnn5)cc4)c3)[nH]c2c1 [Example 105]" observed_measurement="> 60%"
compound="Fc1cccc(-c2cnc(Nc3cccc(-c4nc5ccccc5[nH]4)c3)nc2)n1 [Example 259]" observed_measurement="> 60%"
compound="FC(F)(F)c1ccc2nc(-c3cccc(Nc4ncc(-c5ccccn5)cn4)c3)[nH]c2c1 [Example 83]" observed_measurement="30 to 60%"
compound="c1cc(Nc2ncc(-c3ccncn3)cn2)cc(-c2nc3ccccc3[nH]2)c1 [Example 76]" observed_measurement="30 to 60%"
compound="c1cc(Nc2ncc(-c3ncco3)cn2)cc(-c2nc3ccccc3[nH]2)c1 [Example 171]" observed_measurement="> 60%"

The record that follows has no inhibition at 10 µM shown yet.
### Prompt Query (compound): c1cc(Nc2ccc(-c3cccnn3)cc2)cc(-c2nc3ccccc3[nH]2)c1 [Example 21] ; field requested: inhibition at 10 µM
### Response > 60%

----------
Assay: Cell viability measurement (MTS), Calu-3 cells
Type: cell-based
Conditions: human, 1 μM
VALUE_KIND: viability at 48 h, 1 µM

### Prompt Query (molecule): Cc1ccc2nc(-c3cccc(Nc4ccc(-c5cccnn5)cc4)c3)[nH]c2c1 [Example 105] ; field requested: viability at 48 h, 1 µM
### Response > 80%

### Prompt Try c1ccc(-c2cnc(Nc3cccc(-c4nc5ccccc5[nH]4)c3)nc2)nc1 [Example 44] next.
### Response > 80%

### Prompt Try c1cc(Nc2ccc(-c3cnccn3)cc2)cc(-c2nc3ccccc3[nH]2)c1 [Example 32] next.
### Response > 80%

### Prompt Try FC(F)(F)c1ccc2nc(-c3cccc(Nc4ccc(-c5ccncn5)cc4)c3)[nH]c2c1 [Example 24] next.
### Response > 80%

### Prompt Try c1cc(Nc2ccc(-c3ccncn3)cn2)cc(-c2nc3ccccc3[nH]2)c1 [Example 68] next.
### Response 50 to 80%

### Prompt Try c1ccc(-c2ccc(Nc3cccc(-c4nc5ccccc5[nH]4)c3)cn2)cc1 [Example 80] next.
### Response > 80%

### Prompt Try c1cc(Nc2ccc(-c3cncnc3)cc2)cc(-c2nc3ccccc3[nH]2)c1 [Example 30] next.
### Response 50 to 80%

### Prompt Try c1ccc(-c2ccc(Nc3cccc(-c4nc5ccccc5[nH]4)c3)cc2)nc1 [Example 20] next.
### Response > 80%

### Prompt Try c1cc(Nc2ncc(-c3cccnn3)cn2)cc(-c2nc3cnccc3[nH]2)c1 [Example 49] next.
### Response > 80%
